procedure.details: qHTS drug screen for cell cycle checkpoint inhibitors in PARPi-resistant BRCA-mutant ovarian cancer cell lines. (AID 1963452)
test.conditions: PEO1/OlaR viability, CellTiter-Glo luminescence, 96 h; hits give low values
Label Criterion met when Z-AUC is strictly below -0.1; otherwise label Criterion not met.

1. O=C(c1c(F)ccc(NS(=O)(=O)N2CC[C@@H](F)C2)c1F)c1c[nH]c2ncc(-c3cnc(C4CC4)nc3)cc12; Criterion not met
2. Cc1c(F)ccc(C(=O)Nc2cc([N+](=O)[O-])ccc2N2CCN(C)CC2)c1Cl; Criterion not met
3. COCC(=O)NC/C=C/c1ccc2ncnc(Nc3ccc(Oc4ccc(C)nc4)c(C)c3)c2c1; Criterion met
4. CCn1c(=O)c(-c2ccc(-c3cncs3)cc2Cl)cc2cnc(Nc3ccc(N4CCN(C)CC4)cc3)nc21; Criterion met
5. COc1cc(OC)c2c(=O)[nH]c(-c3cc(C)c(OCCO)c(C)c3)nc2c1; Criterion not met
6. CN1CC[C@@H](c2c(O)cc(O)c3c(=O)cc(-c4ccc(C(F)(F)F)cc4Cl)oc23)[C@@H]1CO; Criterion met
7. FC(F)(F)c1ccc(CNc2ccc(Cc3c[nH]c4ncc(Cl)cc34)cn2)cn1; Criterion not met
8. CCc1cc(C(N)=O)ccc1-n1nc(C(C)C)c2c(-n3cnc(-c4cnn(C)c4)c3)ccnc21; Criterion met
9. Cc1nc(-c2cn3c(n2)-c2ccc(-c4cnn(C(C)(C)C(N)=O)c4)cc2OCC3)n(C(C)C)n1; Criterion met
10. Cc1cnc(-c2ccccc2C(C)C)nc1NCc1ccc(-n2ccnn2)cc1; Criterion not met
11. CC(C)C[C@H](CO)Nc1nc(S[C@@H](C)c2ccccc2)nc2nc(N)sc12; Criterion met
12. CN1CCN(C2CCN(C(=O)Nc3cc(Oc4ccc(NC(=O)C5(C(=O)Nc6ccc(F)cc6)CC5)c(F)c4)ccn3)CC2)CC1; Criterion not met
13. O=C([C@@H](Cc1cccc(C(F)(F)F)c1)NS(=O)(=O)c1cc(F)c2c(c1)CCNC2)N1CCCC1; Criterion met
14. CC(C)(CNC(=O)c1cccc(-c2noc(C(F)(F)F)n2)c1)c1coc(-c2ccccc2)n1; Criterion not met
15. CCCCNc1ncc(-c2ccc(CN3CCOCC3)cn2)c(NC2CCC(O)CC2)n1 (stereo unspecified); Criterion met
16. C[C@@H](c1ccc2nccn2c1)n1nnc2ncc(-c3cnn(C)c3)nc21; Criterion met

---

System: HeLa
procedure.details: Primary qHTS to identify gynecologic anti-cancer compounds using libraries of approved drugs and bioactive compounds (AID 1345084); note: nearly all actives have a fitted effect of over 55% in size
test.conditions: Gynecologic cancer cell panel viability, ATPlite luminescence, 48 h; series mostly up to 57.5 µM
Results filed as inconclusive are left out. Calls of active or inactive are those of the source. The call rests on the fitted dose curve; in most records, active means well fitted cell-killing curve with a large enough effect; inconclusive means small, poorly fitted or top-dose-only effect, or effect the other way; inactive means flat fitted curve, though single readings scatter.
Labels: active, inactive

1) O=C(NCc1ccc(OC(F)(F)F)cc1)C1c2c(F)cccc2C(=O)N1CCc1ccccn1 (stereo not drawn); inactive
2) CC(C)(C)OC(=O)c1ncn2c1C(C)(C)Nc1ccccc1-2; inactive
3) C1=Cc2ccccc2C(=C2CCN(CCCCc3nn[nH]n3)CC2)c2ccccc21; inactive
4) CC(C)CCNC(=O)c1ccc2c(c1)nc(Nc1n[nH]c3ccc(-c4ccccc4OC(F)(F)F)cc13)n2C1CCC(O)CC1 (stereo not drawn); inactive
5) C=C1C(=O)OC2C(OC(=O)C=C(C)C)C(C)=C3C(=O)C=C(C)C3C(O)C12 (stereo not drawn); inactive
6) CC(=O)O[C@@H]1CC[C@@]2(C)[C@H](CC[C@@H]3[C@@H]2C[C@H](OC(C)=O)[C@]2(C)[C@@H](C(C)=O)CC[C@@H]32)C1; inactive
7) CCOC(=O)C1=Cc2ccc(C(F)(F)C(F)(F)F)cc2N=C(N)C1; inactive
8) C=CCC1=C[C@]2(OC)[C@H](C)[C@@H](c3ccc4c(c3)OCO4)O[C@]2(OC)CC1=O; inactive
9) Cc1cnc(-c2ccccc2C(C)C)nc1NCc1ccc(-n2ccnn2)cc1; inactive
10) COc1cc2ncnc(Nc3ccc(O)c(Br)c3)c2cc1OC; inactive
11) CC(=O)c1ccc2c(c1)[C@H](NC(=O)c1ccc(F)c(Cl)c1)[C@H](O)C(C)(C)O2; inactive
12) COC1CC(=O)C23C(=O)NC(CC(C)C)C2C(C)C(C)=CC3/C=C(\C)CCCC1O (stereo not drawn); inactive
13) CCNC(=O)Nc1ccc(-c2nc3c(c(N4CCOCC4C)n2)CCN(C2COC2)C3)cc1 (stereo not drawn); inactive
14) Cc1cc(-c2nc3cc(F)ccc3s2)ccc1NC(=O)[C@@H](N)CCCCN; active
15) COc1ccc(C2Oc3c(OC)cc(CCCO)cc3C2COC2OC(CO)C(O)C(O)C2O)cc1OC (stereo not drawn); inactive
16) NC(N)=NC(=O)c1cnn(-c2cccc3ncccc23)c1C1CC1; inactive
17) C=CC(C)(C)c1[nH]c2ccccc2c1C[C@@H]1NC(=O)[C@H](C)NC1=O; inactive
18) COc1ccc2c(c1)C(C(=O)N(Cc1ccc(N(C)C)cc1)c1ccc(C(C)C)cc1)CCC2 (stereo not drawn); inactive
19) O=c1[nH]c2ccccc2n1CCN1CCN(c2cccc(C(F)(F)F)c2)CC1; inactive
20) CCC/C=C/C=C/C1CC(O)C2(O)C(=O)OCC12 (stereo not drawn); inactive
21) O=C(NCc1nc2ccccc2c(=O)n1-c1ccc(F)cc1)Nc1ccc(Cl)c(C(F)(F)F)c1; inactive
22) COc1ccc(CNCc2cccc3ccccc23)cc1; inactive
23) C=C1C(=O)O[C@@H]2C[C@]3(C)[C@@H](CCC(C)O)[C@@H]3C[C@H]12 (stereo partly drawn); inactive
24) COc1ccc(-c2csc(NC(=O)[C@H]3CCCCN3S(=O)(=O)c3ccc(C)cc3)n2)cc1; inactive
25) CC(=O)OC1C(O)CC2(C)C(CCC3(C)C2CC=C2C4C5(CCC(CO[C@@H]6O[C@H](CO)[C@@H](O)[C@H](O)[C@H]6O)(OC5=O)C4(C)O)C(O)CC23C)C1(C)C (stereo partly drawn); inactive
26) CN1CCC(c2cn(C)c3ccc(OS(=O)(=O)c4c(F)cccc4F)cc23)CC1; inactive
27) O=C(Nc1ccccc1C(=O)NC1CCCCNC1=O)c1cc2ccccc2s1 (stereo not drawn); inactive
28) O=C(OC1CN2CCC1CC2)N1CCc2ccccc2C1c1ccccc1 (stereo not drawn); inactive
29) O=C(Nc1cccnn1)N1CCN(c2nccc(-c3ccc(F)c(F)c3)n2)CC1; inactive
30) CNc1cccc(CCOc2ccc3c(c2)CN(CC(F)(F)F)C(=O)[C@H](CC(=O)O)C3)n1; inactive
31) NC(=O)N1CCC(CC(=O)N2CCC(C3c4ncc(Br)cc4CCc4cc(Cl)cc(Br)c43)CC2)CC1 (stereo not drawn); inactive
32) CC(=O)O[C@@H]1CC2C(/C=C(\C)C(=O)[C@@]3(O)C[C@@H](C)[C@H](OC(=O)c4ccccc4)C3/C=C/1C)C2(C)C (stereo partly drawn); inactive
33) CC(NCCCc1cccc(C(F)(F)F)c1)c1cccc2ccccc12 (stereo not drawn); inactive
34) N#Cc1ccc(COc2ccc(-c3cccc4nc(NC(=O)C5CC5)nn34)cc2)cn1; inactive
35) C=C1CC2OC(=O)C(COC)C2C(OC(=O)/C(C)=C\C)CC2(C)OC1=CC2=O (stereo not drawn); inactive
36) CN(C)[C@@H]1CCc2[nH]c3ccc(NC(=O)c4ccc(F)cc4)cc3c2C1; inactive
37) CC(C)(F)CC(NC(c1ccc(-c2ccc(S(C)(=O)=O)cc2)cc1)C(F)(F)F)C(=O)NC1(C#N)CC1 (stereo not drawn); inactive
38) Cc1nc(N2CCN(C(=O)c3ccco3)CC2)c2c3c(sc2n1)CCCC3; inactive
